statedConditions: in n-butanol, 298.15 K
valueKind: solubility (mole fraction)

### Prompt Which solubility (mole fraction) value is on record for `CCN(CC)C(=S)SSC(=S)N(CC)CC` ?
### Response 0.00518

* * *

statedConditions: in methanol, 288.15 K
valueKind: solubility (mole fraction)
// response body must contain only the number

### Prompt Which solubility (mole fraction) value is on record for `CCN(CC)C(=S)SSC(=S)N(CC)CC` ?
### Response 0.00172

* * *

statedConditions: in dichloromethane, 293.15 K
valueKind: solubility (mole fraction)

### Prompt Which solubility (mole fraction) value is on record for `CCN(CC)C(=S)SSC(=S)N(CC)CC` ?
### Response 0.159

* * *

statedConditions: in dichloromethane, 278.15 K
valueKind: solubility (mole fraction)

### Prompt Which solubility (mole fraction) value is on record for `CCN(CC)C(=S)SSC(=S)N(CC)CC` ?
### Response 0.118

* * *

statedConditions: in THF, 303.15 K
valueKind: solubility (mole fraction)
// response body must contain only the number

### Prompt Which solubility (mole fraction) value is on record for `CCN(CC)C(=S)SSC(=S)N(CC)CC` ?
### Response 0.152

* * *

statedConditions: in dichloromethane, 283.15 K
valueKind: solubility (mole fraction)
// response body must contain only the number

### Prompt Which solubility (mole fraction) value is on record for `CCN(CC)C(=S)SSC(=S)N(CC)CC` ?
### Response 0.13

* * *

statedConditions: in n-butanol, 303.15 K
valueKind: solubility (mole fraction)
// response body must contain only the number

### Prompt Which solubility (mole fraction) value is on record for `CCN(CC)C(=S)SSC(=S)N(CC)CC` ?
### Response 0.00715

* * *

statedConditions: in methanol, 293.15 K
valueKind: solubility (mole fraction)
// response body must contain only the number

### Prompt Which solubility (mole fraction) value is on record for `CCN(CC)C(=S)SSC(=S)N(CC)CC` ?
### Response 0.00235

* * *

statedConditions: in n-propanol, 288.15 K
valueKind: solubility (mole fraction)
// response body must contain only the number

### Prompt Which solubility (mole fraction) value is on record for `CCN(CC)C(=S)SSC(=S)N(CC)CC` ?
### Response 0.00229

* * *

statedConditions: in ethanol, 293.15 K
valueKind: solubility (mole fraction)

### Prompt Which solubility (mole fraction) value is on record for `CCN(CC)C(=S)SSC(=S)N(CC)CC` ?
### Response 0.00266

* * *

statedConditions: in ethyl acetate, 288.15 K
valueKind: solubility (mole fraction)
// response body must contain only the number

### Prompt Which solubility (mole fraction) value is on record for `CCN(CC)C(=S)SSC(=S)N(CC)CC` ?
### Response 0.0201

* * *

statedConditions: in isopropanol, 313.15 K
valueKind: solubility (mole fraction)

### Prompt Which solubility (mole fraction) value is on record for `CCN(CC)C(=S)SSC(=S)N(CC)CC` ?
### Response 0.00651

* * *

statedConditions: in dichloromethane, 298.15 K
valueKind: solubility (mole fraction)
// response body must contain only the number

### Prompt Which solubility (mole fraction) value is on record for `CCN(CC)C(=S)SSC(=S)N(CC)CC` ?
### Response 0.175

* * *

statedConditions: in ethanol, 288.15 K
valueKind: solubility (mole fraction)
// response body must contain only the number

### Prompt Which solubility (mole fraction) value is on record for `CCN(CC)C(=S)SSC(=S)N(CC)CC` ?
### Response 0.00192

* * *

statedConditions: in n-propanol, 313.15 K
valueKind: solubility (mole fraction)
// response body must contain only the number

### Prompt Which solubility (mole fraction) value is on record for `CCN(CC)C(=S)SSC(=S)N(CC)CC` ?
### Response 0.0106

* * *

statedConditions: in isopropanol, 298.15 K
valueKind: solubility (mole fraction)
// response body must contain only the number

### Prompt Which solubility (mole fraction) value is on record for `CCN(CC)C(=S)SSC(=S)N(CC)CC` ?
### Response 0.0026

* * *

statedConditions: in n-butanol, 288.15 K
valueKind: solubility (mole fraction)

### Prompt Which solubility (mole fraction) value is on record for `CCN(CC)C(=S)SSC(=S)N(CC)CC` ?
### Response 0.0028

* * *

statedConditions: in isopropanol, 318.15 K
valueKind: solubility (mole fraction)
// response body must contain only the number

### Prompt Which solubility (mole fraction) value is on record for `CCN(CC)C(=S)SSC(=S)N(CC)CC` ?
### Response 0.00964

* * *

statedConditions: in isobutanol, 308.15 K
valueKind: solubility (mole fraction)
// response body must contain only the number

### Prompt Which solubility (mole fraction) value is on record for `CCN(CC)C(=S)SSC(=S)N(CC)CC` ?
### Response 0.00779

* * *

statedConditions: in ethyl acetate, 278.15 K
valueKind: solubility (mole fraction)
// response body must contain only the number

### Prompt Which solubility (mole fraction) value is on record for `CCN(CC)C(=S)SSC(=S)N(CC)CC` ?
### Response 0.0101

* * *

statedConditions: in ethyl acetate, 308.15 K
valueKind: solubility (mole fraction)

### Prompt Which solubility (mole fraction) value is on record for `CCN(CC)C(=S)SSC(=S)N(CC)CC` ?
### Response 0.0809

* * *

statedConditions: in acetonitrile, 288.15 K
valueKind: solubility (mole fraction)
// response body must contain only the number

### Prompt Which solubility (mole fraction) value is on record for `CCN(CC)C(=S)SSC(=S)N(CC)CC` ?
### Response 0.0313

* * *

statedConditions: in n-propanol, 278.15 K
valueKind: solubility (mole fraction)
// response body must contain only the number

### Prompt Which solubility (mole fraction) value is on record for `CCN(CC)C(=S)SSC(=S)N(CC)CC` ?
### Response 0.00127

* * *

statedConditions: in ethanol, 318.15 K
valueKind: solubility (mole fraction)
// response body must contain only the number

### Prompt Which solubility (mole fraction) value is on record for `CCN(CC)C(=S)SSC(=S)N(CC)CC` ?
### Response 0.0131

* * *

statedConditions: in methanol, 308.15 K
valueKind: solubility (mole fraction)
// response body must contain only the number

### Prompt Which solubility (mole fraction) value is on record for `CCN(CC)C(=S)SSC(=S)N(CC)CC` ?
### Response 0.00541

* * *

statedConditions: in ethanol, 313.15 K
valueKind: solubility (mole fraction)
// response body must contain only the number

### Prompt Which solubility (mole fraction) value is on record for `CCN(CC)C(=S)SSC(=S)N(CC)CC` ?
### Response 0.00911

* * *

statedConditions: in n-propanol, 273.15 K
valueKind: solubility (mole fraction)
// response body must contain only the number

### Prompt Which solubility (mole fraction) value is on record for `CCN(CC)C(=S)SSC(=S)N(CC)CC` ?
### Response 0.00101

* * *

statedConditions: in isobutanol, 293.15 K
valueKind: solubility (mole fraction)
// response body must contain only the number

### Prompt Which solubility (mole fraction) value is on record for `CCN(CC)C(=S)SSC(=S)N(CC)CC` ?
### Response 0.00263

* * *

statedConditions: in methanol, 318.15 K
valueKind: solubility (mole fraction)
// response body must contain only the number

### Prompt Which solubility (mole fraction) value is on record for `CCN(CC)C(=S)SSC(=S)N(CC)CC` ?
### Response 0.0106

* * *

statedConditions: in acetonitrile, 303.15 K
valueKind: solubility (mole fraction)
// response body must contain only the number

### Prompt Which solubility (mole fraction) value is on record for `CCN(CC)C(=S)SSC(=S)N(CC)CC` ?
### Response 0.0793

* * *

statedConditions: in isopropanol, 278.15 K
valueKind: solubility (mole fraction)
// response body must contain only the number

### Prompt Which solubility (mole fraction) value is on record for `CCN(CC)C(=S)SSC(=S)N(CC)CC` ?
### Response 0.000733

* * *

statedConditions: in ethyl acetate, 293.15 K
valueKind: solubility (mole fraction)
// response body must contain only the number

### Prompt Which solubility (mole fraction) value is on record for `CCN(CC)C(=S)SSC(=S)N(CC)CC` ?
### Response 0.0275

* * *

statedConditions: in THF, 308.15 K
valueKind: solubility (mole fraction)
// response body must contain only the number

### Prompt Which solubility (mole fraction) value is on record for `CCN(CC)C(=S)SSC(=S)N(CC)CC` ?
### Response 0.173

* * *

statedConditions: in acetonitrile, 298.15 K
valueKind: solubility (mole fraction)
// response body must contain only the number

### Prompt Which solubility (mole fraction) value is on record for `CCN(CC)C(=S)SSC(=S)N(CC)CC` ?
### Response 0.0558

* * *

statedConditions: in THF, 283.15 K
valueKind: solubility (mole fraction)
// response body must contain only the number

### Prompt Which solubility (mole fraction) value is on record for `CCN(CC)C(=S)SSC(=S)N(CC)CC` ?
### Response 0.0825

* * *

statedConditions: in isobutanol, 283.15 K
valueKind: solubility (mole fraction)
// response body must contain only the number

### Prompt Which solubility (mole fraction) value is on record for `CCN(CC)C(=S)SSC(=S)N(CC)CC` ?
### Response 0.00146
